Collected inhibition values appear next to each entry.
system under test: Prostaglandin G/H synthase 1 (Ovis aries);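 also: in vitro enzyme assay using COX-1 from ram seminal vesicle microsomes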
measurement parameters: at 10 µM
Description: In vitro inhibitory activity against prostaglandin G/H synthase 1 (COX-1) from the microsomal fraction of ram seminal vesicles at 10 uM concentration
Include the unit right after the number.

Please review the entries below; each comes with its answer.
# smiles structure, system under test, inhibition
records = [
    ("CCC(=O)N(c1ccc(-c2cc(C(F)F)nn2-c2ccc(Cl)cc2)cc1)S(C)(=O)=O", "Prostaglandin G/H synthase 1 (Ovis aries)", "100%"),
    ("CS(=O)(=O)Nc1ccc(-c2cc(C(F)F)nn2-c2cccc(F)c2)cc1", "Prostaglandin G/H synthase 1 (Ovis aries)", "97%"),
    ("CC(=O)N(c1ccc(-c2cc(C(F)F)nn2-c2ccc(Cl)cc2)cc1)S(C)(=O)=O", "Prostaglandin G/H synthase 1 (Ovis aries)", "66%"),
    ("CC(=O)Nc1ccc(-c2cc(C)nn2-c2ccc(Br)cc2)cc1", "Prostaglandin G/H synthase 1 (Ovis aries)", "9%"),
]

Dear colleague, I am looking for the recorded inhibition of the following molecule: "CS(=O)(=O)Nc1ccc(-c2cc(C(F)F)nn2-c2ccc(Cl)cc2)cc1"
0%

Reference source for all entries: ChEMBL document CHEMBL1147488
